system: SK-MEL-2 melanoma
Answer with one of the outcomes given here: active, inactive

GET /call?item= `NC1=NC(=O)/C(=C/c2ccc3ncccc3c2)S1` returns the recorded outcome of this test. inactive

---

test system: M14 melanoma; assay: NCI tumour cell line growth inhibition, 48 h
Observable: TGI

Query (molecule): `COc1ccc2c(c1)[n+](=O)c(C(=O)C/C(=N/NC(=O)C[N+](C)(C)C)C(=O)Nc1cccc(C)c1C)c(C)n2O` ; field requested: TGI > 100 µM

Query (molecule): O=C1C2c3[nH]c4ccccc4c3C3CCCCCC3C2C(=O)N1c1ccccc1 (stereo unspecified) ; field requested: TGI > 49.3 µM

---

test system: MDA-MB-435; assay: NCI tumour cell line growth inhibition, 48 h
Observable: TGI

CCCCCCCCCCCCCCCCCCOc1ccccc1CC(=O)OCC[N+](CC)(CC)CC; 6.2 µM

Query (molecule): `O=S(=O)(c1ccccc1)N1CN2CN(C1)CN(S(=O)(=O)c1ccccc1)C2` ; field requested: TGI > 100 µM

Query (molecule): `NC1=NC(=O)/C(=C/c2ccc3ncccc3c2)S1` ; field requested: TGI > 25 µM

Query (molecule): COc1cc(COC(=O)N2CC=CC2C(=O)O)c([N+](=O)[O-])cc1OC (stereo unspecified) ; field requested: TGI > 100 µM

Query (molecule): `Nc1ncnc2c1ncn2-c1ccc([N+](=O)[O-])cn1` ; field requested: TGI > 100 µM

Query (molecule): `CCOC(=O)c1c(-c2cccc(Cl)c2)c(C(=O)OC)c(C)c2sc(C=O)nc12` ; field requested: TGI 38.7 µM

---

system: DU-145 prostate; test: NCI tumour cell line growth inhibition, 48 h
Observable: GI50

CCN(CC)CCC(CNc1ccnc2cc(Cl)ccc12)c1ccccc1 (stereo unspecified); 32.9 µM
COc1ccc(-c2[nH]nc(N)c2-c2cc(OC)c3c(c2)OCO3)cc1; 5.6 µM
C[C@@H](Nc1nc(Nc2ccc(F)c(Cl)c2)nc2c(C3=CCNCC3)cccc12)C1CC1; 1.64 µM
CCOC(=O)c1c(NC(=O)c2ccccc2)sc2c3c(ccc12)OCN(C)C3; 1.67 µM
NC(Cc1c[nH]c2ccc(F)cc12)C(=O)O (stereo unspecified); 1310 µM

Query (compound): `NC(=O)CC1(O)C=C(Br)C(=O)C(Br)=C1` ; field requested: GI50 6.05 µM

---

system: SN12C renal; assay: NCI tumour cell line growth inhibition, 48 h
Observable: GI50

Record excerpt, results attached:
Cc1ccc(NC(=O)Nc2c(Cl)cccc2Cl)cn1; 55.4 µM
N#Cc1ccccc1C#C/C=C\C#Cc1ccccc1N; 2.41 µM
Clc1ccc2ncc(-c3cccc(NC4CNC4)n3)n2c1; 1.58 µM

Find GI50 (SN12C renal) for the entry CC[C@]1(O)CC2CN(CCc3c([nH]c4ccccc34)[C@@](C(=O)OC)(c3cc4c(cc3OC)N(C=O)[C@H]3[C@@](O)(C(=O)OC)[C@H](OC(C)=O)[C@]5(CC)C=CCN6CC[C@]43[C@@H]65)C2)C1 (stereo partly drawn) < 0.005 µM

Find GI50 (SN12C renal) for the entry NC(Cc1c[nH]c2ccc(F)cc12)C(=O)O (stereo not drawn) 918 µM

Find GI50 (SN12C renal) for the entry `NC(=O)CC1(O)C=C(Br)C(=O)C(Br)=C1` 9.05 µM

Find GI50 (SN12C renal) for the entry `COc1cc(/C=C/C(=O)/C=C/c2cc3ccc(Cl)cc3n(Cc3ccccc3)c2=O)ccc1O` 1.95 µM

Find GI50 (SN12C renal) for the entry `Cc1ccc(-c2nc3cc(Cl)c(Cl)cc3nc2C#N)cc1` > 100 µM

---

tested on: CCRF-CEM leukemia; test: NCI tumour cell line growth inhibition, 48 h
As shown below, each of these molecules has a reported TGI value.

Record excerpt, results attached:
COc1cc(/C=C/c2ccc(Br)cc2)cc(OC)c1OC; > 88 µM
CCOc1ccc(OCC)c([P+](c2ccccc2)(c2ccccc2)c2ccccc2)c1; 14.7 µM
CC1=CC(O)C(C(O)(C(F)(F)F)C(F)(F)F)C(C)(C)C1 (stereo not given); > 10 µM

Query (molecule): CC12C(=C(C#N)C(=N)N1c1ccc(Cl)c(Cl)c1)C=C(O)CC2SCCS(=O)(=O)O (stereo not given) ; field requested: TGI > 100 µM

Query (molecule): `NC(N)=NS(=O)(=O)c1ccc(NNC(=O)c2cccc3c(=O)c4ccccc4[nH]c23)cc1` ; field requested: TGI > 100 µM

Query (molecule): C[C@@H]1OC2(O)[C@H]3CCCN3S(=O)(=O)CCN2C1=O (stereo not given in full) ; field requested: TGI > 100 µM

Query (molecule): `O=C(/C=C/C(Cl)(Cl)Cl)Nc1ccc(Cl)cc1` ; field requested: TGI 3.97 µM

Query (molecule): `CCOC(=O)c1cnc2c(ccc3[nH]cccc32)c1=O` ; field requested: TGI > 100 µM

Query (molecule): `O=C(Cc1csc2nc(-c3ccc(Cl)cc3)cn12)N/N=C/c1ccccc1O` ; field requested: TGI > 100 µM

Query (molecule): CCN(CC)CCN1C(=O)C2C3C(=O)CC(C)(CC3C)C2C1=O (stereo not given) ; field requested: TGI > 100 µM

Query (molecule): `ClCc1ccc(Cn2cnc3c(Cl)ncnc32)cc1` ; field requested: TGI > 48.8 µM

Query (molecule): `CCN(CC)CCCNc1ccc([N+](=O)[O-])c2nc3ccc(OC)cc3c(N)c12` ; field requested: TGI 5.71 µM

Query (molecule): CC(C)CC(NP(=O)(O)OC1OC(C)C(O)C(O)C1O)C(=O)NC(Cc1c[nH]c2ccccc12)C(=O)O (stereo not given) ; field requested: TGI > 100 µM

Query (molecule): `COc1ccc2nc3cc([N+](=O)[O-])ccc3c(NNc3ccccc3)c2c1` ; field requested: TGI > 100 µM

Query (molecule): `CCN(CC)c1ccc2nc3c4ccccc4c(=O)cc-3n(-c3ccccc3)c2c1` ; field requested: TGI 7.72 µM

Query (molecule): COc1cc(C2c3cc4c(cc3OC(NCCc3ccccc3)C2C)OCO4)cc(OC)c1OC (stereo not given) ; field requested: TGI > 62.3 µM

Query (molecule): `COc1ccccc1-n1c(N)c2c(C)c(-c3ccccc3)[nH]c2nc1=S` ; field requested: TGI > 100 µM

---

tested on: PC-3 prostate; experiment: NCI tumour cell line growth inhibition, 48 h
Observable: TGI (µM)
Give the number; µM is assumed, so skip it.

COc1c(O)cc2c(c1O)C(=O)C1=C(CCCC1)C2=O; 84.5

Query (compound): Cc1ccc(OCC2=NC3S/C(=C/c4ccc([N+](=O)[O-])o4)C(=O)N3N2)cc1 (stereo not given) ; field requested: TGI 18.2

---

tested on: U251 CNS
Answer with one of the outcomes given here: active, inactive

The examples below pair each entry with its known result.
CCN(CC)CCC(CNc1ccnc2cc(Cl)ccc12)c1ccccc1 (stereo unspecified); inactive
Cc1ccc(Cl)cc1NC(=O)c1cc2ccccc2cc1O; active
COc1ccccc1/C=C/C1=C(C)CCC(c2ccccc2OC)C1C (stereo unspecified); active
CC(=O)[CH-]C(=O)c1ccccc1.CC(=O)[CH-]C(=O)c1ccccc1.CC(C)CCC[C@H](C)C1CCC2[C@@H]3CC=C4C[C@@H]([O-])CC[C@]4(C)C3CC[C@@]21C.CC(C)CCC[C@H](C)C1CCC2[C@@H]3CC=C4C[C@@H]([O-])CC[C@]4(C)C3CC[C@@]21C.Cl.[Ti+4] (stereo partly specified); inactive
Cc1ccc(NC(=O)Nc2c(Cl)cccc2Cl)cn1; inactive

GET /call?item= `COc1cc(/C=C/C(=O)/C=C/c2cc3ccc(Cl)cc3n(Cc3ccccc3)c2=O)ccc1O` returns the recorded outcome of this test. inactive

GET /call?item= `N#Cc1ccccc1C#C/C=C\C#CC#C/C=C\C#Cc1ccccc1C#N` returns the recorded outcome of this test. inactive

---

test system: PC-3 prostate; assay: NCI tumour cell line growth inhibition, 48 h; in the data active = GI50 below about 0.43 µM; inactive = the rest
Answer with one of the outcomes given here: t for active, f for inactive

The examples below pair each entry with its known result.
CC(=O)OC(C)(C)/C=C/C(=O)[C@](C)(O)[C@H]1[C@H](O)C[C@@]2(C)[C@@H]3CC=C4[C@@H](C=C(O)C(=O)C4(C)C)[C@]3(C)C(=O)C[C@]12C; t
Clc1ccc2ncc(-c3cccc(NC4CNC4)n3)n2c1; f
C/C(=N/O)c1ccc2c(c1)/C(=N/O)c1ccccc1-2; f
COc1ccc(C(=O)O[C@H]2[C@H](O[C@H]3[C@@H](O)COC(O[C@H]4C[C@H]5[C@@H]6CC=C7C[C@@H](O)CC[C@]7(C)[C@H]6CC[C@]5(C)[C@H]4[C@H](C)C(=O)CCC(C)C)[C@@H]3OC(C)=O)OC[C@@H](O)[C@@H]2O)c(C)c1 (stereo partly specified); t
Clc1ccc(Nc2nc(Nc3ccccc3)nc(Nc3ccc(-c4cc(-c5ccc(Cl)cc5)on4)cc3)n2)cc1; f
O=C1c2cccnc2C(=O)c2c1c(C(=O)NCCn1ccnc1)c1ccccn21; f
Nc1nnnc2nc[nH]c12; f
COc1ccccc1/C=C/C1=C(C)CCC(c2ccccc2OC)C1C (stereo unspecified); t

GET /call?item= `COc1cccc(C2=C(c3cn(C)c4cc(F)ccc34)C(=O)NC2=O)c1` returns the recorded outcome of this test. f

GET /call?item= `O=C(Nc1cccc(-n2cc(-c3ccncc3)c(-c3ccc(O)c(Cl)c3)n2)c1)c1cc(C(F)(F)F)cc(C(F)(F)F)c1` returns the recorded outcome of this test. f

GET /call?item= `COc1cc(/C=C/C(=O)N2CCC=CC2=O)cc(OC)c1OC` returns the recorded outcome of this test. f
